Value source: PubChem BioAssay (NCI)

# Tested on: SK-MEL-5 melanoma
# assay_text: NCI-60 one-dose screen, 48 h (100 = growth as untreated, 0 = no growth, -100 = all killed)
# conditions: 10 µM unless noted
About 83,000 compounds went through this panel and 20% of them were active in at least one assay; those are over-represented in the sample as a whole.
Please respond with reported growth for every item in the list.
Numbers only, in %.

N#Cc1c2ccccc2nc2ccccc12
94.8
O=C(CCl)N(c1ccccc1)c1ccccc1
99.8
CCCCCCCCCCCC[S+](C)CC(=O)[O-] (stereo unspecified)
-62.3
Cc1cc(Br)c2nsnc2c1[N+](=O)[O-]
54.1
COc1ccc2nc3cc([N+](=O)[O-])ccc3c(NNc3ccccc3)c2c1
88.5

Quick batch: growth for everything below.
1. CCOc1ccc(Nc2nc3c(s2)C(=O)c2ccccc2C3=O)cc1
2. Cc1c(O)ccc(SC#N)c1C

OUT:
1. 62.1
2. 106

Quick batch: growth for everything below.
1. CCC1CCCCN1C(=S)N/N=C(\C)c1ccccn1 (stereo unspecified)
2. O=C(c1ccccc1)c1ccc(O)c2ncccc12
3. CCOC(=O)c1cc(CC)sc1NC(=O)CC(C)=O
4. O=C(CBr)c1ccc(OC(=O)c2ccccc2)cc1
5. O=C(O)c1cccc2cccc(-c3c4ccc(=O)c(O)c-4oc4c(O)c(O)ccc34)c12
6. Cc1ccccc1N=C(N)Nc1ccccc1C (tested in a mixture with another compound)
7. CCc1cccc(CC)c1N1C(=O)C=CC1=O

OUT:
1: -61.5; 2: 26.8; 3: 54.3; 4: 107; 5: 94.6; 6: 73.1; 7: 98.1

Quick batch: growth for everything below.
1. Cc1onc(-c2ccccc2)c1C(=O)N/N=C/c1cc(Cl)cc(Cl)c1O
2. OC(CSc1ccccc1)CN1CCN(c2ccc(Cl)cc2)CC1 (stereo unspecified)

OUT:
9.32
89.2

----------
# Test system: M14 melanoma
# assay_text: NCI-60 one-dose screen, 48 h
# conditions: 10 µM unless noted
The panel holds about 83,000 compounds, 20% with a hit somewhere; the sample as a whole holds those more often. Calls of active or inactive are those of the source. Rule for the calls: active = growth percent below 10; inactive = the rest.
Parameter call: string, one of yes (active), no (inactive)

Nc1cccc2cccc([N+](=O)[O-])c12
no
CN1CCC(c2ccccc2)(c2ccccc2)C(=O)C1
no
CCOC(=O)C1=NN(c2ccccc2)C(=O)/C1=C\N1C(=O)/C(=C/c2cccc(O)c2)SC1=S
no
Nc1nc(-c2ccccc2)nc(N)c1N=O
no

IN: Tell me the recorded outcome of this test for CCOc1ccc(C(C[N+](=O)[O-])Sc2ccccc2N)cc1 (stereo not given) .
OUT: yes

IN: Also Clc1ccc(-n2ncc3c(NCCCN4CCOCC4)ncnc32)cc1 ?
OUT: no

----------
# Test system: NCI-H460 lung
# assay_text: NCI-60 one-dose screen, 48 h
# conditions: 10 µM unless noted
The panel holds about 83,000 compounds, 20% with a hit somewhere; the sample as a whole holds those more often. Active and inactive are the calls of the source. Rule for the calls: active = growth percent below 10; inactive = the rest.
Parameter call: string, one of active, inactive

Cc1ccc(Nc2ccc(O)c3c2C(=O)c2c(O)ccc(Nc4ccc(C)cc4)c2C3=O)cc1
inactive
CC(C)(C)c1ccc(O)c(Br)c1
inactive
Cc1ccccc1N=C(N)Nc1ccccc1C (tested in a mixture with another compound)
inactive

IN: Tell me the recorded outcome of this test for Oc1ccccc1N=Cc1ccccc1 .
OUT: inactive

IN: Also Cc1ccc(/C=C2\CNC/C(=C\c3ccc(C)cc3)C2=O)cc1 ?
OUT: active

IN: Also Cc1nnc(N/N=C/c2ccc([N+](=O)[O-])o2)[nH]c1=O ?
OUT: inactive

IN: Also O=S(=O)(O)c1cnccn1 ?
OUT: inactive
